Here, each record is paired with measured mass density data.
Details: 298.15 K; 101.33 kPa; Liquid; Vibrating tube method
Numbers after ± are expanded uncertainties.

CHEMICAL_STRUCTURE	mass density
C1CCCCC1	779 ± 20 kg/m3
CC(C)O	798 ± 20 kg/m3
c1ccccc1	874 ± 20 kg/m3
CCCCCC	659 ± 20 kg/m3
